Target: cloned human 5-HT2A receptor (Homo sapiens, UniProt P28223)
Construct: purchased Euroscreen; host or cells: CHO-K1 cells
Sequence (P28223 whole entry): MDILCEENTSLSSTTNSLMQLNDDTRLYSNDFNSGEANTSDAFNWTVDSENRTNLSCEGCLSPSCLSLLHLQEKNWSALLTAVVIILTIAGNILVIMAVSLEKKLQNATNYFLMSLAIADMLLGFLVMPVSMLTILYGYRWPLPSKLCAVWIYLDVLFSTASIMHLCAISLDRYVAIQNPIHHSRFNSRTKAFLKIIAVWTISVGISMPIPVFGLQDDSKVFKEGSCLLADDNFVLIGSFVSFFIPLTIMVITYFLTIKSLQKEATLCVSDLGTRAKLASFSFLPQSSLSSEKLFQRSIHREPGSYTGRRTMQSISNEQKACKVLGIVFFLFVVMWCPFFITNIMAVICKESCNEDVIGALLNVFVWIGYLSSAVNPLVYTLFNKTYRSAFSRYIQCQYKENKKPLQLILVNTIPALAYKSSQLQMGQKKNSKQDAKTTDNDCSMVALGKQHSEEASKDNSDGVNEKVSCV
Test: Human 5-HT2A receptor binding assay ([3H]ketanserin, CHO-K1 membranes)
Settings: displacement of [3H]ketanserin (1 nM), read-out: 5-HT2A pKi (converted)
Description: The binding affinity of ligands for human 5-HT2A and 5-HT2C receptors was determined using the following assay. Membrane preparations from CHO-K1 cells expressing the cloned human 5-HT2A receptor were obtained (Euroscreen). The membranes were thawed rapidly and diluted in assay buffer containing Tris-HCl (50 mM, pH 7.7). […] Non specific binding was determined in the presence of 100 μM mianserin. […] Radioactivity retained on the filters was determined by liquid scintillation counting. […]
Property Label: Ki

Per the records, this molecule ( CC(=O)Nc1nc(-c2cccc3ccccc23)co1 ) has Ki equal to > 10 µM

Per the records, this molecule ( CC(C)c1nc(N)oc1-c1ccc(F)c2ccccc12 ) has Ki equal to > 1 µM

More entries:
Per the records, this molecule ( Cc1nc(N)oc1-c1cccc2ccccc12 ) has Ki equal to > 10 µM

Per the records, this molecule ( Nc1nc(-c2ccc3ccccc3c2)co1 ) has Ki equal to > 10 µM
